Every entry's value here was drawn from patent US20210145976A1.

Listed here: items and their measured hCD71:HSA.
target-of-assay: T1, recombinant biotinylated CD71 extracellular domain (Sino Biologics) with an N-terminal 6His tag (human, UniProt P02786 89-760, biotinylated (sites not given))
T1 construct: extracellular domain; also called hCD71; huCD71
T1 sequence (P02786 other isoform, or with tags, fused parts or gaps): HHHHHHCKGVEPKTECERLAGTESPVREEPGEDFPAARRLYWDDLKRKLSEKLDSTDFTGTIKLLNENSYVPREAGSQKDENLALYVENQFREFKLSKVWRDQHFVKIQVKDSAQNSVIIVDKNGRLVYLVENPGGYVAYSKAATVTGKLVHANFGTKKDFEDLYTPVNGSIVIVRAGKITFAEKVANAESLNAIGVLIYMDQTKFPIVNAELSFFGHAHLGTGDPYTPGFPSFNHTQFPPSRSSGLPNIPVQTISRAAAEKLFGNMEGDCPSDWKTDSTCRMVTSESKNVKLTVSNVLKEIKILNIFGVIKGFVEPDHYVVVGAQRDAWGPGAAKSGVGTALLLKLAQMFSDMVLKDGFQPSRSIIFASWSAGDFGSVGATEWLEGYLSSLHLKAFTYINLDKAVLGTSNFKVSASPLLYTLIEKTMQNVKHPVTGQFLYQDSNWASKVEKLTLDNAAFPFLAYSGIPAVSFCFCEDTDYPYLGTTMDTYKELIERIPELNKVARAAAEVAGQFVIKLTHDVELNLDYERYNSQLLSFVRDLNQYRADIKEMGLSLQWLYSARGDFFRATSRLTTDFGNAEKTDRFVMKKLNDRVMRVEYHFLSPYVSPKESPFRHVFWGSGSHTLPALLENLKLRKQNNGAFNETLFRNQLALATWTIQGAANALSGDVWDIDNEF
test: screening ELISA, ratio
measurement-name: hCD71:HSA

binder | measured-number
SEQ ID NO 253 (designed binder, FN3 domain) MLPAPKNLVVSRVTEDSARLSWTAPDAAFDSFTIEYWETIGGGEAIVLTVPGSERSYDLTGLKPGTEYYVGIYGVKGGWWSRPLSAIFTT | 1140
SEQ ID NO 94 (designed binder, FN3 domain) MLPAPKNLVVSRITEDSARLSWTAPDAAFDSFGIYYYEWWSTGEAIVLTVPGSERSYDLTGPKPGTEYYVKISGVKGGYRSYPLSAIFTT | 44
SEQ ID NO 296 (designed binder, FN3 domain) MLPAPKNLVVSRVTEDSARLSWTAPDAAFDSFFIGYLEPQPPGEAIILTVPGSERSYDLTGLKPGTEYNVTIQGVKGGFPSMPLSAIFTT | 844
SEQ ID NO 277 (designed binder, FN3 domain) MLPAPKNLVVSRVTEDSARLSWTAPDAAFDSFWINYYEGIGEGEAIVLTVPGSERSYDLTGLKPGTEYYVDISGVKGGSYSLPLSAIFTT | 598
